RUN_DESCRIPTION: Intra-articular pharmacokinetics and biodistribution in arthritic rats
Type: in vivo, Sprague–Dawley (SD) rats
CONDITION_PARAMETERS: Sprague-Dawley, rat, iv; arthritic rats, i.v. 10 mg/kg, joint; read-out: AUC0–∞ pertinent to the joints
REPORTED_METRIC: AUC(0-inf) (ng·h/mL)
Give bare numbers, in ng·h/mL.

Challenge: What value of AUC(0-inf) has been reported for the following compound? CC1=C(O)C(=O)C=C2C1=CC=C1[C@@]2(C)CC[C@@]2(C)[C@@H]3C[C@](C)(C(=O)O)CC[C@]3(C)CC[C@]12C [Tri solution, Tripterine]
Response given: 1470

* * *

RUN_DESCRIPTION: Plasma pharmacokinetics in arthritic rats
Assay type: in vivo
CONDITION_PARAMETERS: Sprague-Dawley, rat, iv, i.v. 10 mg/kg, mean ± SD, n = 6
REPORTED_METRIC: AUC(0-inf) (ng·h/mL)
Give bare numbers, in ng·h/mL.

Challenge: What value of AUC(0-inf) has been reported for the following compound? CC1=C(O)C(=O)C=C2C1=CC=C1[C@@]2(C)CC[C@@]2(C)[C@@H]3C[C@](C)(C(=O)O)CC[C@]3(C)CC[C@]12C [Tri solution, Tripterine]
Response given: 35900

* * *

RUN_DESCRIPTION: Plasma pharmacokinetics in arthritic rats
Assay type: in vivo
CONDITION_PARAMETERS: Sprague-Dawley, rat, iv, i.v. 10 mg/kg, mean ± SD, n = 6
REPORTED_METRIC: half-life (h)
One number for each entry, in h.

Challenge: What value of half-life has been reported for the following molecule? CC1=C(O)C(=O)C=C2C1=CC=C1[C@@]2(C)CC[C@@]2(C)[C@@H]3C[C@](C)(C(=O)O)CC[C@]3(C)CC[C@]12C [Tri solution, Tripterine]
Response given: 6.15

* * *

RUN_DESCRIPTION: Plasma pharmacokinetics in arthritic rats
Assay type: in vivo
CONDITION_PARAMETERS: Sprague-Dawley, rat, iv, i.v. 10 mg/kg, mean ± SD, n = 6, read-out: CL (total drug clearance from plasma) (converted)
REPORTED_METRIC: clearance
Remember to put the unit after the number in your answer.

Challenge: What value of clearance has been reported for the following compound? "CC1=C(O)C(=O)C=C2C1=CC=C1[C@@]2(C)CC[C@@]2(C)[C@@H]3C[C@](C)(C(=O)O)CC[C@]3(C)CC[C@]12C"
Response given: 4.65 mL/min

* * *

RUN_DESCRIPTION: Plasma pharmacokinetics in arthritic rats
Type: in vivo
CONDITION_PARAMETERS: Sprague-Dawley, rat, iv, i.v. 10 mg/kg, mean ± SD, n = 6, read-out: MRT (mean residence time)
REPORTED_METRIC: MRT (h)
Answers are plain numbers, in h.

Challenge: What value of MRT has been reported for the following molecule? CC1=C(O)C(=O)C=C2C1=CC=C1[C@@]2(C)CC[C@@]2(C)[C@@H]3C[C@](C)(C(=O)O)CC[C@]3(C)CC[C@]12C [Tri solution, Tripterine]
Response given: 7.07
